target: WEE1 (Homo sapiens, UniProt P30291); construct: Drug treated cells are fixed and stained with propidium iodide (PI); endogenous in cells; experiment: Guava flow cytometry cell cycle assay (DNA content per cell, propidium iodide); type: cell-based; settings: with 20 nM GEM; in µM (unit assumed)
Sequence (P30291 whole entry): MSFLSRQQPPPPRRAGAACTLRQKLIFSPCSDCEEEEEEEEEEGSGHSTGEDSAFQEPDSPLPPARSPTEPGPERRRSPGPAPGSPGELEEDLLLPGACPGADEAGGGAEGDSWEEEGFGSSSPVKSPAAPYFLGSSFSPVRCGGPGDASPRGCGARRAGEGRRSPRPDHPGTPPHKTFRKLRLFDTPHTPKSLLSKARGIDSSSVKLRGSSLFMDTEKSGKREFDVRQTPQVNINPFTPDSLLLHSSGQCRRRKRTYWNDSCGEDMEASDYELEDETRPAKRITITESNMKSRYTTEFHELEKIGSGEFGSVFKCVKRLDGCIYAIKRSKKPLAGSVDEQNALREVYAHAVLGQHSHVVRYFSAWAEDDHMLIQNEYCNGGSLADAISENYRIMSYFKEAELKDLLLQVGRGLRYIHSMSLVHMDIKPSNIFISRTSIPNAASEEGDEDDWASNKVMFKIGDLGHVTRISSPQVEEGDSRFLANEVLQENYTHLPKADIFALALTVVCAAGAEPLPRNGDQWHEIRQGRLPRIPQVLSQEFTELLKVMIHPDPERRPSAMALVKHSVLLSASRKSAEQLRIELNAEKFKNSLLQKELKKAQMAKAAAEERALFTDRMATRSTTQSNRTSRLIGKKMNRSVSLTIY
Reported WEE1 Guava MEC with 20 nM GEM is given for each of the following compounds.

- compound: "C=C(C)c1cn(-c2c(Cl)cccc2Cl)c(=O)c2cnc(Nc3cnn(C4CCN(C)CC4)c3)nc12"
  WEE1 Guava MEC with 20 nM GEM: 1.25
- compound: "CCc1cn(-c2c(Cl)cccc2Cl)c(=O)c2cnc(Nc3cnn(C4CCNCC4)c3)nc12"
  WEE1 Guava MEC with 20 nM GEM: 0.625
- compound: "Cc1cc(Cl)c(-n2cc(Br)c3nc(Nc4cnn(C5CCNCC5)c4)ncc3c2=O)c(Cl)c1"
  WEE1 Guava MEC with 20 nM GEM: 0.625
- compound: "Cc1ccc(Cl)c(-n2cc(Br)c3nc(Nc4cnn(C5CCN(C)CC5)c4)ncc3c2=O)c1Cl"
  WEE1 Guava MEC with 20 nM GEM: 1.25
- compound: "Cc1cccc(F)c1-n1cc(Br)c2nc(Nc3cnn(C4CCN(C)CC4)c3)ncc2c1=O"
  WEE1 Guava MEC with 20 nM GEM: 0.625
- compound: "NC1CCc2ccc(Nc3ncc4c(=O)n(-c5c(Cl)cccc5Cl)cc(Br)c4n3)cc21 (stereo not shown)"
  WEE1 Guava MEC with 20 nM GEM: 2.5
- compound: "O=c1c2cnc(Nc3ccc4c(c3)CNCC4)nc2c(Br)cn1-c1c(Cl)cccc1Cl"
  WEE1 Guava MEC with 20 nM GEM: 0.156
- compound: "CN1CCCC(n2cc(Nc3ncc4c(=O)n(-c5c(Cl)cccc5Cl)cc(Br)c4n3)cn2)C1 (stereo not shown)"
  WEE1 Guava MEC with 20 nM GEM: 0.625
- compound: "CC(C)c1cn(-c2c(Cl)cccc2Cl)c(=O)c2cnc(Nc3cnn(C4CCNCC4)c3)nc12"
  WEE1 Guava MEC with 20 nM GEM: 1.25
- compound: "O=c1c2cnc(Nc3ccc4c(c3)CNCC43CC3)nc2c(Br)cn1-c1c(Cl)cccc1Cl"
  WEE1 Guava MEC with 20 nM GEM: 0.156
- compound: "CN1Cc2cc(Nc3ncc4c(=O)n(-c5c(Cl)cccc5Cl)cc(Br)c4n3)ccc2C2(CC2)C1"
  WEE1 Guava MEC with 20 nM GEM: 0.156
- compound: "C=C(C)c1cn(-c2c(Cl)cccc2Cl)c(=O)c2cnc(Nc3cnn(C4CCNCC4)c3)nc12"
  WEE1 Guava MEC with 20 nM GEM: 1.25
- compound: "CN(C)C1CCc2ccc(Nc3ncc4c(=O)n(-c5c(Cl)cccc5Cl)cc(Br)c4n3)cc21 (stereo not shown)"
  WEE1 Guava MEC with 20 nM GEM: 1.25
- compound: "Cc1cn(-c2c(Cl)cccc2Cl)c(=O)c2cnc(Nc3cnn(C4CCN(C)CC4)c3)nc12 [Compound P2]"
  WEE1 Guava MEC with 20 nM GEM: 1.25
- compound: "Cc1ccc(Cl)c(-n2cc(Br)c3nc(Nc4cnn(C5CCNCC5)c4)ncc3c2=O)c1Cl"
  WEE1 Guava MEC with 20 nM GEM: 1.25
- compound: "Cc1cccc(C)c1-n1cc(Br)c2nc(Nc3cnn(C4CCN(C)CC4)c3)ncc2c1=O"
  WEE1 Guava MEC with 20 nM GEM: 0.625
